targetDesc: NMDA receptor (Rattus norvegicus, UniProt P35439)
experimentNotes: [^3H] MK-801 binding assay
pEC50: −log10 of the molar value. Residues, ends and D or L forms follow the SMILES beside them.
Quick list: pEC50 per entry.
measurementLabel: pEC50

C[C@@H](O)[C@H](NC(=O)[C@@H]1CCCN1C(=O)[C@@H]1CCCN1C(=O)[C@@H](N)CO)C(N)=O [CM-1] (H-SPPT-NH2) | 11.30
COc1ccc(CC2(C(=O)N[C@H](C(N)=O)[C@@H](C)O)CCCN2C(=O)[C@@H]2CCCN2C(=O)[C@@H](N)[C@@H](C)O)cc1 (some centres unmarked) | 10.89
NC(=O)[C@H](CO)NC(=O)[C@@H]1CCCN1C(=O)[C@@H]1CCCN1C(=O)[C@@H](N)CO [CM-3] (H-SPPS-NH2) | 10.80
CC(O)C(N)C(=O)N1CCCC1C(=O)N1CCCC1(Cc1ccc(C(F)(F)F)cc1)C(=O)NC(C(N)=O)C(C)O (centres unmarked) | 7.97
CC(O)C(N)C(=O)N1CCCC1C(=O)N1CCCC1(Cc1cccc(F)c1)C(=O)NC(C(N)=O)C(C)O (centres unmarked) | 11.15
Cc1cccc(CC2(C(=O)NC(C(N)=O)C(C)O)CCCN2C(=O)C2CCCN2C(=O)C(N)C(C)O)c1 (centres unmarked) | 11.22
COc1cc(CC2(C(=O)NC(C(N)=O)C(C)O)CCCN2C(=O)C2CCCN2C(=O)C(N)C(C)O)cc(OC)c1OC (centres unmarked) | 9.35
CC(O)C(N)C(=O)N1CCCC1C(=O)N1CCCC1(Cc1cc(Br)cc(Br)c1)C(=O)NC(C(N)=O)C(C)O (centres unmarked) | 8.66

###

experimentNotes: in vitro
recordedConditions: dog, MDCK, pH 7.4
measurementLabel: recovery at 5 μM (%)

C[C@@H](O)[C@H](N)C(=O)N1CCC[C@H]1C(=O)N1CCC[C@@]1(Cc1ccccc1)C(=O)N[C@H](C(N)=O)[C@@H](C)O | 100

###

experimentNotes: in vitro
recordedConditions: dog, MDCK, pH 7.4, Papp (10^−6 cm/sec), concentration 5 μM, HBSS pH 7.4
measurementLabel: Papp (nm/s)

C[C@@H](O)[C@H](N)C(=O)N1CCC[C@H]1C(=O)N1CCC[C@@]1(Cc1ccccc1)C(=O)N[C@H](C(N)=O)[C@@H](C)O | 1.5

###

experimentNotes: Metabolic stability in liver microsomes, rat
Assay type: in vitro ADME
recordedConditions: liver microsomes, Rat (M) microsomes
measurementLabel: half-life at 1 μM

C[C@@H](O)[C@H](N)C(=O)N1CCC[C@H]1C(=O)N1CCC[C@@]1(Cc1ccccc1)C(=O)N[C@H](C(N)=O)[C@@H](C)O [CM-4A] | > 1 h
